Cited source: the supplement of paper PMC12042874

ASSAY_TEXT: amyloid nucleation score (Sup35N fusion, yeast selection) (log enrichment); library NNK2; higher = more nucleation; inactive = no reads after selection;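 also: zero at mode of non-aggregating sequences after 7 days selection at 30°C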
Measured amyloid nucleation score values are reported for all entries that follow.
MEASUREMENT_TYPE: amyloid nucleation score

SUBSTANCE: CYKWLAYY
MEASUREMENT_TYPE: amyloid nucleation score
READOUT_VALUE: -1.44

SUBSTANCE: WFMEILFVV
MEASUREMENT_TYPE: amyloid nucleation score
READOUT_VALUE: -0.383

SUBSTANCE: TSRKTEFQPFAGSICLYMGI
MEASUREMENT_TYPE: amyloid nucleation score
READOUT_VALUE: 0.18

SUBSTANCE: FMRWSRISRSGYNDDGSLVG
MEASUREMENT_TYPE: amyloid nucleation score
READOUT_VALUE: 3.52

SUBSTANCE: ESDLVLGRVR
MEASUREMENT_TYPE: amyloid nucleation score
READOUT_VALUE: 0.69

SUBSTANCE: LKTQWQSPWVQMV
MEASUREMENT_TYPE: amyloid nucleation score
READOUT_VALUE: -0.09

SUBSTANCE: VPLGECIPNFLSTYGGYVVS
MEASUREMENT_TYPE: amyloid nucleation score
READOUT_VALUE: -0.287

SUBSTANCE: TWVGWS
MEASUREMENT_TYPE: amyloid nucleation score
READOUT_VALUE: -0.841

SUBSTANCE: PKPTYTP
MEASUREMENT_TYPE: amyloid nucleation score
READOUT_VALUE: 0.292

SUBSTANCE: KNWVYVAWRRENYEQPFIR
MEASUREMENT_TYPE: amyloid nucleation score
READOUT_VALUE: -0.299

SUBSTANCE: ANLFVCMDDM
MEASUREMENT_TYPE: amyloid nucleation score
READOUT_VALUE: -0.051

SUBSTANCE: SNNMFWFLNYYVGIYMWISP
MEASUREMENT_TYPE: amyloid nucleation score
READOUT_VALUE: -1.21

SUBSTANCE: VFIMGPTS
MEASUREMENT_TYPE: amyloid nucleation score
READOUT_VALUE: 3.96

SUBSTANCE: YYAGLVTSDWNTRSLGGMCE
MEASUREMENT_TYPE: amyloid nucleation score
READOUT_VALUE: -0.506

SUBSTANCE: PALQCLSHRAIA
MEASUREMENT_TYPE: amyloid nucleation score
READOUT_VALUE: 0.222

SUBSTANCE: IRNVSYDMGCELSHDMVRSR
MEASUREMENT_TYPE: amyloid nucleation score
READOUT_VALUE: 0.044

SUBSTANCE: LVWGVP
MEASUREMENT_TYPE: amyloid nucleation score
READOUT_VALUE: -0.945
